- Tested on: HCT-15 colon
- Protocol: NCI tumour cell line growth inhibition, 48 h
Form field: TGI (one value per entry).

Quick note, TGI for `Cn1cc(-c2nn3cc(-c4cccs4)nc3s2)c2cc(F)ccc21` landed at > 100 µM

get_value(item= `O=C(O)CCCc1nc2c(n1-c1ccccc1)C(=O)c1ccccc1C2=O` , readout=TGI) returns > 100 µM

Others:
# compound CCC1NCC(=O)c2c1[nH]c1ccccc21 (stereo not drawn) ; its TGI = > 100 µM

---

- System: DU-145 prostate
- Protocol: NCI tumour cell line growth inhibition, 48 h
Peptide text beside a SMILES is read from it. * marks the point of attachment. Boc = CC(C)(C)OC(=O)*
Observation type: TGI

// below: answered molecules
Entry `CNC(=O)OCC1=C(COC(=O)NC)CN(c2ccccc2)C1` : TGI on DU-145 prostate = > 100 µM

Response field TGI (DU-145 prostate) for item `COc1cc(C(=O)N/N=C/c2cccc([N+](=O)[O-])c2)cc(OC)c1OC` : > 100 µM

Read the next record carefully.
Record CSCCC(NC(=O)C(CC(C)C)NC(=O)CNC(=O)OC(C)(C)C)C(=O)N(C)C (stereo not drawn) (Boc-Gly-Leu-Met-NMe2; configuration not given here) ; system DU-145 prostate; TGI = > 100 µM

---

- Test system: MALME-3M melanoma
- Protocol: NCI tumour cell line growth inhibition, 48 h
Listed below: GI50 values for each entry.

These recorded examples may help you get a feel for the data.
Briefly, GI50 measured for O=C(NO)C(O)C(O)C(O)C(O)CO (stereo not drawn) : > 100 µM

Lookup result for `Cc1ccc(OCCCCCCNCCO)c(C)c1` ; measured GI50: 17 µM

Lookup result for `COc1cc(/C=C\c2cccnc2Nc2ccccc2)cc(OC)c1OC` ; measured GI50: 15.3 µM

The reported value for `Cn1cc(-c2nn3cc(-c4cccs4)nc3s2)c2cc(F)ccc21` in terms of GI50 is 1.81 µM

The recorded GI50 for entry CC1(C)CC2(C)OC2C2(C1)N=NC(=Nc1ccccc1)O2 (stereo not drawn) equals 3.07 µM

Memo: `N#Cc1ccc(N2Cc3cc(Cl)ccc3OC3=C2C(=O)N(Cc2ccccc2)C3=O)cc1` , reported GI50: 1.44 µM

---
// GI50 value for `CC(=O)N[C@@H]1CCC[C@H](C(=O)Nc2cc(-c3cnn4c3CC(C)(C)C4)c(Cl)cn2)C1` : 0.0216 µM

The recorded GI50 for entry `O=C(CN=Cc1cccs1)CSC(c1ccccc1)c1ccccc1` equals 19.6 µM

---

- Test system: NCI-H226 lung
- Protocol: NCI tumour cell line growth inhibition, 48 h
Peptide text beside a SMILES is read from it. * marks the point of attachment. Boc = CC(C)(C)OC(=O)*
Examples of compounds with documented TGI follow.

TGI recorded for this compound, `C=C1C(=O)O[C@H]2C(=O)[C@H](C)CCC[C@@](C)(O)/C=C\C[C@@]3(C)O[C@@H]3C[C@@H]12` , is > 100 µM

Entry `CCOC(=O)NNC(=O)NC12CC3CC(CC(C3)C1)C2` ; TGI = > 100 µM

Input `COc1cc(CC(=O)c2ccc3c(c2)OCO3)cc(OC)c1OC` . Output TGI: > 100 µM

# compound CC1SC2(CCCCC2)N(NC(=O)c2[nH]c3ccc(F)cc3c2-c2ccccc2)C1=O (stereo unspecified) ; its TGI = > 100 µM

Lookup result for `CN1CCN(C(=S)SCN2C(=O)c3ccccc3S2(=O)=O)CC1` ; measured TGI: > 100 µM

***
# compound CSCCC(NC(=O)C(CC(C)C)NC(=O)CNC(=O)OC(C)(C)C)C(=O)N(C)C (stereo not drawn) (Boc-Gly-Leu-Met-NMe2; configuration not given here) ; its TGI = > 100 µM

Quick note, TGI for COC(=O)C1CCC(=NC2c3ccccc3-c3ccccc32)N1 (stereo unspecified) landed at > 100 µM

# TGI of CCC1NCC(=O)c2c1[nH]c1ccccc21 (stereo unspecified) = > 100 µM

Summary for this compound, `O=C(NCCCCl)c1c(O)c2ccccc2[nH]c1=O` : TGI is > 100 µM

Lab note: measured TGI of `CC[C@@]1(O)C(=O)OCc2c1cc1n(c2=O)Cc2cc3c(NC(C)=O)c(O)ccc3nc2-1` was > 20.3 µM

Looking up `Fc1nc(F)nc(-c2c3ccccc3c3n2CCS3)n1` , I see its TGI listed as > 100 µM

The value of TGI measured for the compound `O=c1[nH]c(-c2ccccn2)nc2sc3c(c12)CCCCCC3` turned out to be > 100 µM

So, `O=C(O)c1ccccc1-c1ccccc1C(=O)c1ccccc1` ? Its TGI was > 100 µM

---

- Test system: DMS 114 small cell lung
- Protocol: NCI tumour cell line growth inhibition, 48 h
Observation type: TGI

Notebook: `Cc1cccc(N2C(=O)/C(=C/c3ccc(N(CCC#N)CCC#N)cc3C)N=C2c2cc([N+](=O)[O-])ccc2Cl)c1` , TGI read as > 100 µM

Further cases:
Field TGI (entry `Fc1nc(F)nc(-c2c3ccccc3c3n2CCS3)n1` ) reads > 100 µM

Recorded result, `Cc1[nH]c(=O)nc(N/N=C/c2ccc(O)cc2)c1C(=O)Nc1ccc(Cl)cc1` , TGI: > 100 µM

---

- System: MALME-3M melanoma
- Protocol: NCI tumour cell line growth inhibition, 48 h
Listed compounds paired with reported TGI

// `COC(=O)CCc1ccc2c(c1)CC1(C2)Cc2ccc(CCC(=O)OC)cc2C1` : TGI value = > 100 µM

Lookup result for `Cn1c(=O)c2[nH]c(N/N=C3/SCC(=O)N3Cc3ccccc3)nc2n(C)c1=O` ; measured TGI: > 100 µM

***
Sure, the documented TGI for `O=C(O)CNC(=O)c1cccc2c(=O)c3ccccc3[nH]c12` is > 100 µM

---

Attribute: TGI
- Tested on: COLO 205 colon
- Protocol: NCI tumour cell line growth inhibition, 48 h

Example entries begin here.
Just so you know, measured TGI for `O=c1[nH]c(-c2ccccn2)nc2sc3c(c12)CCCCCC3` came out at > 100 µM

Lab note: `CCN(CC)c1ccc(C(=C2C=CC(=[N+](CC)CC)C=C2)c2ccccc2)cc1` gave TGI of 0.136 µM

New cases:
Measured TGI of `O=C(OCc1nc2ccc(Br)cc2c(=O)n1-c1ccccc1)c1ccccc1O` : > 100 µM

---

- System: SK-MEL-2 melanoma
- Protocol: NCI tumour cell line growth inhibition, 48 h
A collection of molecules and their measured TGI

Entry under test: `COc1cc(OC)c(/C=C/S(=O)(=O)Cc2ccc(OC)c(NCC(=O)O)c2)c(OC)c1` . Its TGI was > 100 µM

Others:
Record `CCc1nc(N)nc(N)c1-c1ccc([N+](=O)[O-])c(Cl)c1` . Reported TGI: > 100 µM

Input CN(Cc1nc2c(N)nc(N)nc2nc1N)c1ccc(C(=O)NC(CCC(=O)O)C(=O)O)cc1 (stereo unspecified) . Output TGI: > 100 µM

Per the records, this molecule ( O=C1N2CCc3c([nH]c4ccccc34)C23CC2CCCC12S3 (stereo unspecified) ) has TGI equal to > 50 µM

The recorded TGI for C=C(CCC(C(=O)O)C1CCC2(C)C3=C(CCC12C)C1(C)CCC(O)C(C)(C)C1CC3)C(C)C (stereo unspecified) is > 100 µM

Lab note: measured TGI of `Cc1ccc(Nc2nnc3n2S(=O)(=O)c2cc(C)c(Cl)cc2S3)cc1` was 67.1 µM

---

- Tested on: EKVX NSCLC
- Protocol: NCI tumour cell line growth inhibition, 48 h
Peptide text beside a SMILES is read from it. * marks the point of attachment. Boc = CC(C)(C)OC(=O)*
Observation type: TGI

Study these solved cases before continuing.
// `CCc1nc(N)nc(N)c1-c1ccc([N+](=O)[O-])c(Cl)c1` : TGI value = > 100 µM

Quick note, TGI for O=C(CC(C(=O)O)N1CCOCC1)c1ccccc1 (configuration not stated) landed at 38.4 µM

New cases:
Form field TGI, entry `COc1cc([C@@H]2c3cc4c(cc3[C@@H](Nc3ccc(Cl)cc3C(=O)c3ccccc3Cl)[C@H]3COC(=O)[C@H]23)OCO4)cc(OC)c1OC` : > 100 µM

Measured TGI of `Cc1cnc2[nH]c(-c3ccccc3)cc(=O)c2c1` : > 82.2 µM

TGI recorded for this compound, `CN1C(=O)[C@@]2(C=CC3(CC2)OCCO3)c2ccccc21` , is > 50 µM

Value of measured TGI for the entry CSCCC(NC(=O)C(CC(C)C)NC(=O)CNC(=O)OC(C)(C)C)C(=O)N(C)C (stereo not drawn) (Boc-Gly-Leu-Met-NMe2; configuration not given here) : > 100 µM
